Test: inhibitors of hepatocyte lipid droplet formation, primary screen, imaging, high-throughput imaging, BODIPY stain (AID 1656)
Conditions: AML12 mouse hepatocytes, oleate lipid droplets, at 6.5 µM
Out of some 240,000 compounds screened, about 950 (0.4%) were called active.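 The calls were made as follows: active = lipid droplet intensity inhibited by at least 50%, with more than 500 cells counted; inconclusive = wells with under 300 cells, treated as cytotoxic; inactive = the rest.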 For the sample, actives were picked, then their nearest neighbours and some compounds at random.
Labels: active, inactive

{"columns": ["COMPOUND", "CLASS ASSIGNMENT"],
 "data": [
  ["COc1ccc(CN(CC(=O)NC2CCCC2)C(=O)CCC(=O)Nc2cc(C)on2)cc1", "inactive"],
  ["COc1ccc(C(C(=O)NC(C)(C)C)N(Cc2ccc(F)cc2)C(=O)CCC(=O)Nc2cc(C)on2)cc1 (stereo not drawn)", "active"],
  ["CCC(CC)NC(=O)/C=C/c1cccc([N+](=O)[O-])c1", "inactive"],
  ["CCC(C)(C)NC(=O)C(c1ccc(OC)cc1)N(C(=O)CCC(=O)Nc1cc(C)on1)c1ccc(OC)cc1OC (stereo not drawn)", "inactive"],
  ["CSc1ccccc1C(=O)NCc1ccccc1", "inactive"],
  ["C/C(=N\\NC(=O)COc1ccc(C)cc1[N+](=O)[O-])c1ccc2c(c1)OCCO2", "inactive"],
  ["CCc1ccc(NC(=O)C(C)OC(=O)/C=C/c2cccc([N+](=O)[O-])c2)cc1 (stereo not drawn)", "active"],
  ["CC1CCN(C(=S)NC(=O)c2ccccc2Br)CC1", "inactive"]
]}
